# Assayed Target: T1, Human SIRPβ (human, UniProt O00241 30-148)
# T1 construct: Soluble analyte in SPR
# T1 sequence (O00241 30-148): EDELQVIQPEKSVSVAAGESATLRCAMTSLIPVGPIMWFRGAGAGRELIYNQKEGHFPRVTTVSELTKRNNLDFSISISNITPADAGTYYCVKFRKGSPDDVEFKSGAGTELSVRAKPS
# Test: SPR, antibody on GLC chip, SIRP as analyte
pKd: −log10 of the molar value.
Output 1 for pKd not less than 9; output -1 otherwise.

- Anti-SIRP-α antibody 135, light chain Mut, heavy chain Mut (antibody, V domains shown, Whole antibody) VH: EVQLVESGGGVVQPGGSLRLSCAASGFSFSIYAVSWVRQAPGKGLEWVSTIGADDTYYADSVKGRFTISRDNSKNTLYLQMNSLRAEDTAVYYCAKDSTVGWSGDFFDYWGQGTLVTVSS VL: EIVLTQSPATLSVSPGERVTLSCRASQNVRSDIAWYQQKPGQAPRLLIYAASSRDTGIPARFSGSGSGTDFTLTISSLQSEDFGVYYCQQYYDWPPFTFGGGTKVEIK: 1
- Anti-SIRP-α antibody 119, light chain Mut, heavy chain Mut (antibody, V domains shown, Whole antibody) VH: EVQLLESGGGVVQPGGSLRLSCAASGFSFSNFAVTWVRQAPGKGLEWVSTIGSGDTYYADSVKGRFTISRDNSKNTLYLQMNSLRAEDTAVYYCAKDSTVSWSGDFFDYWGQGTLVTVSS VL: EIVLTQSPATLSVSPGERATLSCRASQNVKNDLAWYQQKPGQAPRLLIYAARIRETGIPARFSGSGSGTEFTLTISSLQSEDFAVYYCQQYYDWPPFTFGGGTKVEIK: 1
- Anti-SIRP-α antibody 135, light chain wt, heavy chain Mut_V34M (antibody, V domains shown, Whole antibody) VH: EVQLVESGGGVVQPGGSLRLSCAASGFSFSIYAMSWVRQAPGKGLEWVSTIGADDTYYADSVKGRFTISRDNSKNTLYLQMNSLRAEDTAVYYCAKDSTVGWSGDFFDYWGQGTLVTVSS VL: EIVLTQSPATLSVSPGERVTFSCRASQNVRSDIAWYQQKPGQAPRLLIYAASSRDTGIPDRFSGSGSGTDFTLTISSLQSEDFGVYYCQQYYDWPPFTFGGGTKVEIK: 1
- Hum1/AB21_HC_Mutall (antibody, V domains shown, Whole antibody) VH: EVQLVESGGGVVQPGGSLRLSCAASGFTFSSNAMSWVRQAPGKGLEWVAGISAGGSDTYYPASVKGRFTISRDNSKNTLYLQMNSLRAEDTAVYYCARETWNHLFDYWGQGTLVTVSS VL: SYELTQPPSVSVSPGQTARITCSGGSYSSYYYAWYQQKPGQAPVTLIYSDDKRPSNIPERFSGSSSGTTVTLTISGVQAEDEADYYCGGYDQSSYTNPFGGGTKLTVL: 1
- Anti-SIRP-α antibody 136, light chain Mut_I2T, heavy chain Mut (antibody, V domains shown, Whole antibody) VH: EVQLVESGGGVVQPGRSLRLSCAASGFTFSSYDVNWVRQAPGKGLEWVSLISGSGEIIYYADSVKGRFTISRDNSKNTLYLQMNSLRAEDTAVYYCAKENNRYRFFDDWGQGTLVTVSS VL: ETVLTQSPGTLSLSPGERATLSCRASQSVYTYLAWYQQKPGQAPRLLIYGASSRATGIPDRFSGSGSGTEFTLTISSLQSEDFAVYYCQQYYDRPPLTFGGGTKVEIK: -1
